Where do the numbers come from? From patent US20070191336A1.

Molecular target: phospho p-38 alpha kinase (Homo sapiens)
Construct: purchased Panvera
Sequence (Q16539 whole entry): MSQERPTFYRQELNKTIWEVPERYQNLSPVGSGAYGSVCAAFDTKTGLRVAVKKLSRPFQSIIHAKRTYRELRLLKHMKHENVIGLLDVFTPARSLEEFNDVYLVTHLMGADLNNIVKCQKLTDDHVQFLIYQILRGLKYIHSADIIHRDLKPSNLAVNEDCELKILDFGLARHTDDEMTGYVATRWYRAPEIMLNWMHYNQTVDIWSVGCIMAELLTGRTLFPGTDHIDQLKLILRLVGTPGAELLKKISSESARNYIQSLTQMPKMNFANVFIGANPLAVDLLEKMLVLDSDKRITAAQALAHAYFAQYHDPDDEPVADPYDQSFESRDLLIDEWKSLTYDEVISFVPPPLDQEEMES
Assay: P-38 alpha kinase assay (spectrophotometric, pyruvate kinase/lactate dehydrogenase coupled)
Type: biochemical
Conditions: Table 3; rates from […] to 2 h time frame
pIC50: −log10 of the molar value.
Would you please tag the item Met when its pIC50 is 7 or above, and Not met when it is below?

Sample answers from the record:
- molecule: "COc1cccc(-n2nc(C(C)(C)C)cc2NC(=O)Nc2ccsc2)c1 [Example 327]"
  class-name: "Not met"
- molecule: "CC(C)(C)c1cc(NC(=O)Nc2cccc(Cl)c2)n(-c2cccc(C#N)c2)n1 [Example 385]"
  class-name: "Met"
- molecule: "COC(=O)COc1ccc(-n2nc(C(C)(C)C)cc2NC(=O)Nc2cccc3ccccc23)cc1 [Example 519]"
  class-name: "Met"
- molecule: "CC(C)(C)c1cc(NC(=O)Nc2ccc(Cl)cc2)n(-c2cccc(Cn3c(=O)[nH]n(-c4ccccc4)c3=O)c2)n1 [Example 495]"
  class-name: "Not met"
- molecule: "CC(C)(C)c1cc(NC(=O)Nc2ccccc2)n(-c2ccc(O)cc2)n1 [Example 522]"
  class-name: "Not met"
- molecule: "CC(C)(C)c1cc(NC(=O)Nc2cccc3ccccc23)n(-c2ccc(OCC(=O)O)cc2)n1 [Example 520]"
  class-name: "Met"
- molecule: "CC(=O)N1CCc2ccc(-n3nc(C(C)(C)C)cc3NC(=O)Nc3cccc(Cl)c3Cl)cc2C1 [Example 512]"
  class-name: "Met"
- molecule: "COc1cccc(-n2nc(C(C)(C)C)cc2NC(=O)Nc2ccc(Cl)cc2Cl)c1 [Example 318]"
  class-name: "Not met"

Could you tell me if the measured pIC50 of CC(C)(C)c1cc(NC(=O)Nc2cccc(C(F)(F)F)c2)n(-c2cccc(CCN)c2)n1 [Example 380] reaches 7 or more?
Not met

Now consider CC(C)(C)c1cc(NC(=O)Nc2ccccc2F)n(-c2cccc(CCC(=O)O)c2)n1 [Example 363] .
Not met

Now consider CC(C)(C)c1cc(NC(=O)Nc2ccc(Cl)cc2)n(-c2cccc(CNC(=O)N3CCOCC3)c2)n1 [Example 489] .
Not met

Now consider COc1cccc(-n2nc(C(C)(C)C)cc2NC(=O)Nc2cccc(Br)c2)c1 [Example 312] .
Not met

Now consider CC(C)(C)c1cc(NC(=O)Nc2cccc(Br)c2)n(-c2cccc(C#N)c2)n1 [Example 356] .
Met
